- tested.target: α5β3γ2 GABAA/BzR (Homo sapiens, UniProt P18507+P31644)
- assay.notes: Competition binding to HEK cell membranes, α5β3γ2
- Set-up: expressed in transfected cells
- experimental.setup: read-out: Ki α5
Hi! Could you tag entries with Ki below 100 nM as YES, and those at or above as NO? Much appreciated.

Example cases with answers are listed next.
{"columns": ["compound", "category.label"],
 "data": [
  ["CCCC(=O)c1cc2c(cn1)[nH]c1ccc(F)cc12 [CM-A57]", "NO"],
  ["C#Cc1ccc2c(c1)C(=O)N(C)Cc1c(C(=O)OC(C)(C)C)ncn1-2 [RY-024]", "YES"],
  ["S=C=Nc1ccc2[nH]c3cnc(N=C=S)cc3c2c1 [EDC-I-093]", "NO"]
]}

Note: attention shifts to another entry.
Q: Please check: Ki for CC(C)(C)OC(=O)c1cc2c(cn1)[nH]c1ccccc12 [BCCt] , strictly under 100 nM or not?
Ans: NO

###

The entries below come with measured Ki values attached.
- tested.target: α5β3γ2 GABAA/BzR (Homo sapiens, UniProt P18507+P31644)
- assay.notes: Competition binding to HEK cell membranes, α5β3γ2
- Parameters: expressed in transfected cells
- experimental.setup: Figure 5; read-out: Ki α5
Provide only the numeric value, understood in nM.

Record excerpt, results attached:
{"columns": ["molecule", "Ki [nM]"],
 "data": [
  ["CCOC(=O)c1ncoc1-c1ncn2c1C1CCN1C(=O)c1cc(Br)ccc1-2 (stereo not shown) [RY-062 (12)]", 172],
  ["CCOC(=O)c1ncoc1-c1ncn2c1C1CCN1C(=O)c1cc(C#C[Si](C)(C)C)ccc1-2 (stereo not shown) [RY-068 (11)]", 37],
  ["C#Cc1ccc2c(c1)C(=O)N1CCC1c1c(-c3ocnc3C(=O)OCC)ncn1-2 (stereo not shown) [RY-069 (13)]", 19]
]}

Please turn your attention to the following entry.
Q: Dear colleague, please send me the reported Ki for CCc1ccc2c(c1)C(=O)N(C)Cc1c(C(=O)OCCCOC(=O)c3ncn4c3CN(C)C(=O)c3cc(CC)ccc3-4)ncn1-2 [XLi-356 (10)] when you can.
Ans: 101

###

The entries below come with measured Ki values attached.
- tested.target: α4β3γ2 GABAA/BzR (Homo sapiens, UniProt P18507+P48169)
- Construct: expressed in transfected cells; host or cells: LTK cells (given for XLi-093 only)
- assay.notes: biochemical
- Format: binding
Provide only the numeric value, understood in µM.

Record excerpt, results attached:
{"columns": ["compound", "reported.property", "measured"],
 "data": [
  ["C[Si](C)(C)C#Cc1ccc2[nH]c3cnc(C(=O)OCC(F)(F)F)cc3c2c1", "Ki", 2],
  ["CC(C)(C)OC(=O)c1cc2c(cn1)[nH]c1ccc(F)cc12", "Ki", 1]
]}

Q: Dear colleague, please send me the reported Ki for C#Cc1ccc2[nH]c3cnc(C(=O)OCC(F)(F)F)cc3c2c1 when you can.
Ans: 2

Q: Dear colleague, please send me the reported Ki for C#Cc1ccc2c(c1)C(=O)N(C)Cc1c(C(=O)OCCCOC(=O)c3ncn4c3CN(C)C(=O)c3cc(C#C)ccc3-4)ncn1-2 when you can.
Ans: 1.55

###

- tested.target: α5β3γ2 GABAA/BzR (Homo sapiens, UniProt P18507+P31644)
- assay.notes: Competition binding to HEK cell membranes, α5β3γ2
- Design: expressed in transfected cells
- experimental.setup: Ki α5
reported.property: Ki (nM)
Provide only the numeric value, understood in nM.

Record excerpt, results attached:
{"columns": ["molecule", "tested.target", "Ki, nM"],
 "data": [
  ["O=C1C2C=Nc3ccccc3C2=NN1c1ccccc1 (stereo not shown) [QH-II-090 (CGS-8216), reference compound]", "α5β3γ2 GABAA/BzR (Homo sapiens, UniProt P18507+P31644)", 0.25],
  ["CC(C)(C)OC(=O)c1ncn2c1[C@@H]1CCCN1C(=O)c1c(Br)cccc1-2 [BRETAZENIL, reference compound]", "α5β3γ2 GABAA/BzR (Homo sapiens, UniProt P18507+P31644)", 0.5],
  ["C#Cc1ccc2c(c1)C(=O)N(C)Cc1c(C(=O)OCCCCCOC(=O)c3ncn4c3CN(C)C(=O)c3cc(C#C)ccc3-4)ncn1-2", "α5β3γ2 GABAA/BzR (Homo sapiens, UniProt P18507+P31644)", 5.4]
]}

Please turn your attention to the following entry.
Q: Dear colleague, please send me the reported Ki for C#Cc1ccc2[nH]c3cnc(C(=O)OCC(F)(F)F)cc3c2c1 when you can.
Ans: 124
